target: T1, human SIRPA_V1 protein (human, UniProt P78324 31-504); experiment: blocking cell-based ELISA: peroxidase-labeled CD47-Fc (1 µg/mL) on 293α cells expressing SIRPA_V1; y axis = CD47-Fc signal relative to no antibody (100)
T1 construct: Expressed on 293α cells from pcDNA3.2 V5-DEST or pFLAG V5-DEST (FLAG-tagged) vectors; also called human SIRPA Variant 1; hSIRPA V1
T1 sequence (P78324 31-504 limits assumed): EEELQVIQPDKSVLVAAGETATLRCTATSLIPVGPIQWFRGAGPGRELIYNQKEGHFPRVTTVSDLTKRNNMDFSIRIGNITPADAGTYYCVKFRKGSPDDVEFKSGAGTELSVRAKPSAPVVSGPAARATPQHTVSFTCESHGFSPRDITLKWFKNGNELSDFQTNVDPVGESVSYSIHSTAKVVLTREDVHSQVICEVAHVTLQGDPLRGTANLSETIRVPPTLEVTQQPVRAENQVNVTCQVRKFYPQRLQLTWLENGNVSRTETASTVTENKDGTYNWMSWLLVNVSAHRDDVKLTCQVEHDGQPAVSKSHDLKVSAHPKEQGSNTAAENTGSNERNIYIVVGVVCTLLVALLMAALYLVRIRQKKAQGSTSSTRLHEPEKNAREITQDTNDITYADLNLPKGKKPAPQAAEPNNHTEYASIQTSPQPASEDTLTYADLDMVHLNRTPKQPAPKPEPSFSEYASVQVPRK
Assignment: determine reported IC50 (read off the curve) for the given binders.

Incoming: Answer with the recorded IC50 (read off the curve) for the binder listed here: humanized anti-SIRPA antibody hD13_H1L3 (antibody, human IgG4 S228P, kappa, F234A L235A, V domains shown, hH1 heavy chain (IgG4proFALA) and hL3 kappa light chain; also called hD13_HIL3; HIL3 antibody) VH: QVQLVESGGGVVQPGRSLRLSCAASGFTFSDYGMIWVRQAPGKGLEWVASISSSSSYIYYADSVKGRFTISRDNSKNRLYLQMNSLRAEDTAVYYCARRYYGFNYPFDYWGQGTMVTVSS VL: DTQLTQSPSSLSASVGQRVTITCGASKSVRTYMHWYQQKPGKQPKLLIYSASNLEAGVPSRFSGSGSGTDFTLTISSLQPEDFATYYCQQSNEPPYTFGQGTKLEIKR
Outgoing: ~0.5 µg/mL

Incoming: Check the records and state IC50 (read off the curve) for humanized anti-SIRPA antibody hD13_H2L3 (antibody, human IgG4 S228P, kappa, F234A L235A, V domains shown, hH2 heavy chain (IgG4proFALA) and hL3 kappa light chain; also called H2L3 antibody) VH: EVQLVESGGGVVQPGRSLRLSCAASGFTFSDYGMIWVRQAPGKGLEWVASISSSSSYIYYADSVKGRFTISRDNSKNTLYLQMNSLRAEDTAVYYCARRYYGFNYPFDYWGQGTMVTVSS VL: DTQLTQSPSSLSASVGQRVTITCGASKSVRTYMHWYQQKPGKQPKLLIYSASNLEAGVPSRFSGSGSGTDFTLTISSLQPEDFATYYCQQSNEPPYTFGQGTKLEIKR
Outgoing: ~0.6 µg/mL
